Attribution: patent US7335814B2

# Tested On: recombinant GTase A119 (Arabidopsis thaliana)
# Construct: made in house; host or cells: E. coli
# Method: Specific activity of recombinant GTase producing O-glucosides against lignin precursors (HPLC)
# Type: biochemical
# Condition Parameters: 30° C.; ND = not detected
Binarize Specific activity of A119 (substrate converted to 4-O-glucoside) at 5 nkat/mg; below is Fulfilled, at or above is Not fulfilled.

>>> label_class("O=C(O)/C=C/c1ccc(O)cc1 [p-coumaric acid]")
"Fulfilled"
>>> label_class("COc1cc(/C=C/C=O)ccc1O [Coniferyl aldehyde, coniferyl aldehyde]")
"Fulfilled"
>>> label_class("COc1cc(/C=C/CO)cc(OC)c1O [sinapyl alcohol]")
"Not fulfilled"
>>> label_class("COc1cc(/C=C/C(=O)O)ccc1O [Ferulic acid, ferulic acid]")
"Not fulfilled"
>>> label_class("COc1cc(/C=C/C=O)cc(OC)c1O [sinapyl aldehyde]")
"Fulfilled"
>>> label_class("O=C/C=C/c1ccc(O)cc1 [p-coumaryl aldehyde]")
"Fulfilled"
>>> label_class("O=C(O)C=Cc1ccc(O)c(O)c1 [Caffeic acid, 3,4-dihydroxycinnamic acid]")
"Fulfilled"

###

# Tested On: recombinant GTase A062 (Arabidopsis thaliana)
# Construct: made in house; host or cells: E. coli
# Method: Specific activity of recombinant GTase producing glucose ester against lignin precursors (HPLC)
# Assay type: biochemical
# Condition Parameters: 0.5 ml of potential substrates, 5 mM UDPG, 0.2 μg GTase, 200 μl, 20° C., 30 min
Classify by measured Specific activity of A062 (substrate converted to glucose ester): true (1) if it is equal to or exceeds 0.1 nkat/mg, false (0) if it is smaller.

>>> label_class("O=C(O)/C=C/c1ccc(O)cc1 [p-coumaric acid]")
"true (1)"
>>> label_class("COc1cc(/C=C/C(=O)O)ccc1O [Ferulic acid, ferulic acid]")
"false (0)"
>>> label_class("O=C(O)C=Cc1ccccc1 [Cinnamic acid, cinnamic acid]")
"true (1)"
>>> label_class("O=C(O)C=Cc1ccc(O)c(O)c1 [Caffeic acid, 3,4-dihydroxycinnamic acid]")
"true (1)"

###

# Tested On: recombinant GTase A43 (Arabidopsis thaliana, UniProt O23402)
# Construct: made in house; host or cells: E. coli
# Method: Specific activity of recombinant GTase producing glucose ester against lignin precursors (HPLC)
# Format: biochemical
# Condition Parameters: 0.5 ml of potential substrates, 5 mM UDPG, 0.2 μg GTase, 200 μl, 20° C., 30 min
Property: Specific activity of A43 (substrate converted to glucose ester) (nkat/mg)

>>> obs_value("COc1cc(/C=C/C(=O)O)ccc1O [Ferulic acid, ferulic acid]")
0.04
>>> obs_value("O=C(O)/C=C/c1ccc(O)cc1 [p-coumaric acid]")
0.03
>>> obs_value("COc1cc(/C=C/C(=O)O)cc(OC)c1O [Sinapic acid, sinapic acid]")
0.05
>>> obs_value("O=C(O)C=Cc1ccc(O)c(O)c1 [Caffeic acid, 3,4-dihydroxycinnamic acid]")
0.01
>>> obs_value("O=C(O)C=Cc1ccccc1 [Cinnamic acid, cinnamic acid]")
0.02

###

# Tested On: recombinant GTase A233 (Arabidopsis thaliana, UniProt Q8W491)
# Construct: made in house; host or cells: E. coli
# Method: Specific activity of recombinant GTase producing O-glucosides against lignin precursors (HPLC)
# Type: biochemical
# Condition Parameters: 30° C.; ND = not detected
Property: Specific activity of A233 (substrate converted to 4-O-glucoside) (nkat/mg)

>>> obs_value("COc1cc(/C=C/C(=O)O)ccc1O")
0.37
>>> obs_value("COc1cc(/C=C/CO)cc(OC)c1O")
0.05
>>> obs_value("O=C(O)C=Cc1ccc(O)c(O)c1 [Caffeic acid, 3,4-dihydroxycinnamic acid]")
0.48
>>> obs_value("COc1cc(/C=C/C(=O)O)cc(OC)c1O")
0.39
>>> obs_value("COc1cc(/C=C/CO)ccc1O")
0.46
>>> obs_value("O=C(O)/C=C/c1ccc(O)cc1")
0.09
